Test: qHTS of pediatric cancer cell lines to identify multiple opportunities for drug repurposing: Confirmatory screen for SK-N-SH cells (AID 1347129);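 also: cells exposed to compound for 48 h before viability read; nearly all actives have a fitted effect of over 60% in size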
Settings: SK-N-SH neuroblastoma cell viability; series mostly up to 46.1 µM
Results filed as inconclusive are left out. Active and inactive are the calls of the source. Calls follow the shape of the dose curve; as a rule, active = well fitted cell-killing curve with a large enough effect; inconclusive = small, poorly fitted or top-dose-only effect; inactive = flat fitted curve, though single readings scatter.
Just give me one of these, please: active, inactive

{"compound": "C[C@]1(c2nc3c(C(N)=O)cccc3[nH]2)CCCN1", "classLabel": "inactive"}
{"compound": "CCOc1cc(N2CCC(O)CC2)ccc1Nc1ncc2c(n1)N(C)c1ccccc1C(=O)N2C", "classLabel": "active"}
{"compound": "CO[C@@H]1[C@H](N(C)C(=O)c2ccccc2)C[C@H]2O[C@]1(C)n1c3ccccc3c3c4c(c5c6ccccc6n2c5c31)C(=O)NC4", "classLabel": "inactive"}
{"compound": "Cc1c(C)c2c(c(C)c1O)CCC(C)(COc1ccc(CC3SC(=O)NC3=O)cc1)O2 (configuration not stated)", "classLabel": "inactive"}
{"compound": "OC[C@H](Cc1ccccc1)Nc1nc(Oc2ccc3c(c2)CCC3)nc2c1ncn2Cc1ccc(-c2ccccc2)cc1", "classLabel": "inactive"}

[Q] State the result this test recorded for Cc1cn[nH]c1 .
[A] inactive

[Q] State the result this test recorded for CCN(CC)CCCC(C)Nc1ccnc2cc(Cl)ccc12 (configuration not stated) .
[A] inactive

---

Assay: Quantitative High-Throughput drug screen in 47 multiple myeloma cell lines against the NCATS MIPE library collection: KMS28BM_JCRB cell viability assay (AID 1919874); also: nearly all actives have a fitted effect of over 35% in size; also: potency is read from the fitted curve at half-maximal effect
Conditions: CellTiter-Glo ATP, 48 h; series mostly up to 45.8 µM
Records with an inconclusive call do not appear. Calls of active or inactive are those of the source. Calls come from the whole dose curve; as a rule, active = well fitted cell-killing curve with a large enough effect; inconclusive = small, poorly fitted or top-dose-only effect, or effect the other way; inactive = no such curve, though single readings can be large or run the other way.
quantity: Potency

// solved cases for Potency follow
{"molecule": "N#Cc1ccc(C(c2ccc(C#N)cc2)n2cncn2)cc1", "Potency": "5.9 µM (active)"}
{"molecule": "NCCc1ccc(O)c(O)c1", "Potency": "inactive"}
{"molecule": "Cc1[nH]c(=O)c(C#N)cc1-c1ccc2nccn2c1", "Potency": "inactive"}
{"molecule": "CN(C)c1ccc(C2Nc3ccc4ccccc4c3C3=C2C(=O)CC(C)(C)C3)cc1Br (configuration not stated)", "Potency": "inactive"}
{"molecule": "CC(C)C[C@H](NC(=O)[C@@H](O)[C@H](N)Cc1ccccc1)C(=O)O", "Potency": "16.6 µM (active)"}

[Q] Supply reported Potency belonging to this molecule: Cc1cccc(-c2nn(C(=S)Nc3ccccc3)cc2-c2ccnc3ccccc23)n1
[A] inactive

[Q] Supply reported Potency belonging to this molecule: CS(=O)(=O)c1cccc(CNc2nc(Nc3ccc4c(c3)CCC(=O)N4)ncc2C(F)(F)F)c1
[A] 16.6 µM (active)

[Q] Supply reported Potency belonging to this molecule: N#CC[C@H](C1CCCC1)n1cc(-c2ncnc3[nH]ccc23)cn1
[A] 20.9 µM (active)

[Q] Supply reported Potency belonging to this molecule: CC1(C)SCCN(S(=O)(=O)c2ccc(OCC#CCO)cc2)[C@@H]1C(=O)NO
[A] inactive

[Q] Supply reported Potency belonging to this molecule: NC(=O)c1cnccn1
[A] inactive

[Q] Supply reported Potency belonging to this molecule: CCCCCCCc1ccc(CCc2cccc(O)c2C(=O)O)cc1
[A] inactive

[Q] Supply reported Potency belonging to this molecule: NCCCC(N)(C(=O)O)C(F)F (configuration not stated)
[A] inactive
